Kindly supply the reported inhibition at 1 µM values for the records listed here.
# study-system: JAK3 (Homo sapiens, UniProt P52333)
# Construct: purchased Invitrogen
# Sequence (P52333 1-1124): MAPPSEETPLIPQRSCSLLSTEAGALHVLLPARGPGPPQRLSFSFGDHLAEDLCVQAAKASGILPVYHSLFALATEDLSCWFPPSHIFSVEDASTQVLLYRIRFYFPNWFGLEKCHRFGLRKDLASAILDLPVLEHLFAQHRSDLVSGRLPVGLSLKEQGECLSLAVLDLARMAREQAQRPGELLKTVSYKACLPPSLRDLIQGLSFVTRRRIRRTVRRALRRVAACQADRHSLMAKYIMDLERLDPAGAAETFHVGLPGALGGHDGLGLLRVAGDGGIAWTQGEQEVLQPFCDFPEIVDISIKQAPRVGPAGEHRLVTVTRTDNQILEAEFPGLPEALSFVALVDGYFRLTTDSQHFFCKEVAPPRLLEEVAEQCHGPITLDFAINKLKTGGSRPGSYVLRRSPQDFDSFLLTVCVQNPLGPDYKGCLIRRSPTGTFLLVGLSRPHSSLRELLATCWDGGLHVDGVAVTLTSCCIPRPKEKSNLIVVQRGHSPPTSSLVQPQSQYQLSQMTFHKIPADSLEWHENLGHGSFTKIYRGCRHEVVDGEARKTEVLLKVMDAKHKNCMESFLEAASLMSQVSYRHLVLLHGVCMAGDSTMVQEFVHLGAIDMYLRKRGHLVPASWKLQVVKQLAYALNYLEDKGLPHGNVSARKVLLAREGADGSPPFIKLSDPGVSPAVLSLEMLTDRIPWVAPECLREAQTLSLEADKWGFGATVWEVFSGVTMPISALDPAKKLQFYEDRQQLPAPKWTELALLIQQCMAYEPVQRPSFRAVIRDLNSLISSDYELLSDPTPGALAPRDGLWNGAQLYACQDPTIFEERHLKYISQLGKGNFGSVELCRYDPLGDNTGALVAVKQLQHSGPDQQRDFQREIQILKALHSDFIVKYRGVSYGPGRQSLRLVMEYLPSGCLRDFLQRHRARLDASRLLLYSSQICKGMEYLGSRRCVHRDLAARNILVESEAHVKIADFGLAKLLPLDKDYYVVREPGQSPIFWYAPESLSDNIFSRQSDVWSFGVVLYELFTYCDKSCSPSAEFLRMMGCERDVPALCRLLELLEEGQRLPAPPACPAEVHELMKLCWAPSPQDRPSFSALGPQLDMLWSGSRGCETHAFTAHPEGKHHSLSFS
# assay-notes: JAK3 enzyme inhibition test (LANCE method)
# Assay type: biochemical
# reported-conditions: 1 μM test compound; read-out: JAK3 enzyme inhibitory activity (%, 1 μM)
For clarity, give the value followed by its unit.

1) Cn1nc(-c2cn(-c3c(F)cccc3F)c(=O)c3c(N)n[nH]c23)cc1C(=O)N1CCOCC1: 100%
2) COC1(c2cc(-c3cn(-c4c(F)cccc4F)c(=O)c4c(N)n[nH]c34)nn2C)CN(S(=O)(=O)C(C)C)C1: 99%
3) CC(C)[C@H](C)n1cc(-c2cc(C3(O)CCOCC3)n(C)n2)c2[nH]nc(N)c2c1=O: 100%
4) CC(C1CC1)n1cc(-c2cc(N3CCOCC3)n(C)n2)c2[nH]nc(N)c2c1=O (racemic): 100%

For each of the items listed, what is its inhibition at 1 µM?
1. Cn1nc(-c2cn(C(C3CC3)C3CC3)c(=O)c3c(N)n[nH]c23)cc1C(C)(C)O
2. CC(C)[C@H](C)n1cc(-c2cc(N3CCOCC3)n(C)n2)c2[nH]nc(N)c2c1=O
3. C[C@@H](C1CC1)n1cc(-c2cc(N3CCC(C)(O)CC3)n(C)n2)c2[nH]nc(N)c2c1=O
4. Cn1nc(-c2cn(C(C3CC3)C3CC3)c(=O)c3c(N)n[nH]c23)cc1N1CCS(=O)(=O)C(C)(C)C1

1: 99%; 2: 100%; 3: 100%; 4: 99%
